Reference for the values: paper PMC6900553

ASSAY COMMENT: Pharmacokinetic study in rats
Format: in vivo
EXPERIMENTAL CONTEXT: Sprague-Dawley, rat, plasma, po, 40 mg/kg
MEASUREMENT LABEL: Cmax (ng/mL)
Give a bare numeral; the unit ng/mL is implied.

Request: Which measured Cmax value corresponds to COc1cc2ncnc(Nc3ccc(F)c(Cl)c3)c2cc1OCCCN1CCOCC1 [Gefitinib] ?
Response: 1480

###

ASSAY COMMENT: Metabolic stability in rat liver microsomes
Assay type: in vitro ADME
EXPERIMENTAL CONTEXT: pH 7.4
MEASUREMENT LABEL: half-life at 1 μmol/L (min)
Give a bare numeral; the unit min is implied.

Request: Which measured half-life at 1 μmol/L value corresponds to "COc1cc2ncnc(Nc3ccc(F)c(Cl)c3)c2cc1OCCCN1CCOCC1" ?
Response: 21.2

###

ASSAY COMMENT: Pharmacokinetic study in rats
Format: in vivo
EXPERIMENTAL CONTEXT: Sprague-Dawley, rat, plasma, po, 40 mg/kg
MEASUREMENT LABEL: Tmax (h)
Give a bare numeral; the unit h is implied.

Request: Which measured Tmax value corresponds to COc1cc2ncnc(Nc3ccc(F)c(Cl)c3)c2cc1OCCCN1CCOCC1 [Gefitinib] ?
Response: 4.33

###

ASSAY COMMENT: Metabolic stability in dog liver microsomes
Assay type: in vitro ADME
EXPERIMENTAL CONTEXT: pH 7.4
MEASUREMENT LABEL: half-life at 1 μmol/L (min)
Give a bare numeral; the unit min is implied.

Request: Which measured half-life at 1 μmol/L value corresponds to "COc1cc2ncnc(Nc3ccc(F)c(Cl)c3)c2cc1OCCCN1CCOCC1" ?
Response: 34.5

###

Items are presented alongside their recorded Papp B→A at 90 min, 10 μmol/L.
ASSAY COMMENT: Caco-2 cell permeability assay
EXPERIMENTAL CONTEXT: human
Note to self: number, then unit, no commentary.

Request: Which measured Papp B→A at 90 min, 10 μmol/L value corresponds to COCCc1ccc(OCC(O)CNC(C)C)cc1 (stereo not drawn) ?
Response: 30.9 ×10⁻⁶ cm/s

Request: And then "CC[C@H]1OC(=O)[C@H](C)[C@@H](O[C@H]2C[C@@](C)(OC)[C@@H](O)[C@H](C)O2)[C@H](C)[C@@H](O[C@@H]2O[C@H](C)C[C@H](N(C)C)[C@H]2O)[C@](C)(O)C[C@@H](C)C(=O)[C@H](C)[C@@H](O)[C@]1(C)O" , what is it?
Response: 22.2 ×10⁻⁶ cm/s

Request: And then "COc1cc2ncnc(Nc3ccc(F)c(Cl)c3)c2cc1OCCCN1CCOCC1" , what is it?
Response: 15.5 ×10⁻⁶ cm/s

###

ASSAY COMMENT: Pharmacokinetic study in rats
Format: in vivo
EXPERIMENTAL CONTEXT: Sprague-Dawley, rat, plasma, po, 40 mg/kg, AUCINF_plasma, p.o. 40 mg/kg, mean ± SD, n = 3
MEASUREMENT LABEL: AUC (ng·h/mL)
Give a bare numeral; the unit ng·h/mL is implied.

Request: Which measured AUC value corresponds to COc1cc2ncnc(Nc3ccc(F)c(Cl)c3)c2cc1OCCCN1CCOCC1 [Gefitinib] ?
Response: 20800

###

ASSAY COMMENT: Caco-2 cell permeability assay
EXPERIMENTAL CONTEXT: human
MEASUREMENT LABEL: Papp A→B at 90 min, 10 μmol/L (×10⁻⁶ cm/s)
Give a bare numeral; the unit ×10⁻⁶ cm/s is implied.

Here's what some known entries look like.
COc1cc2ncnc(Nc3ccc(F)c(Cl)c3)c2cc1OCCCN1CCOCC1 [Gefitinib] :: 8.37
COCCc1ccc(OCC(O)CNC(C)C)cc1 (stereo not drawn) [Metoprolol] :: 40

Request: Which measured Papp A→B at 90 min, 10 μmol/L value corresponds to CC[C@H]1OC(=O)[C@H](C)[C@@H](O[C@H]2C[C@@](C)(OC)[C@@H](O)[C@H](C)O2)[C@H](C)[C@@H](O[C@@H]2O[C@H](C)C[C@H](N(C)C)[C@H]2O)[C@](C)(O)C[C@@H](C)C(=O)[C@H](C)[C@@H](O)[C@]1(C)O [Erythromycin] ?
Response: 0.09

###

ASSAY COMMENT: Pharmacokinetic study in rats
Assay type: in vivo
EXPERIMENTAL CONTEXT: Sprague-Dawley, rat, plasma, po, 40 mg/kg
MEASUREMENT LABEL: half-life (h)
Give a bare numeral; the unit h is implied.

Request: Which measured half-life value corresponds to "COc1cc2ncnc(Nc3ccc(F)c(Cl)c3)c2cc1OCCCN1CCOCC1" ?
Response: 3.85

###

ASSAY COMMENT: Pharmacokinetic study in rats
Assay type: in vivo
EXPERIMENTAL CONTEXT: Sprague-Dawley, rat, plasma, oral, 40 mg/kg
MEASUREMENT LABEL: bioavailability (%)
Give a bare numeral; the unit % is implied.

Request: Which measured bioavailability value corresponds to "COc1cc2ncnc(Nc3ccc(F)c(Cl)c3)c2cc1OCCCN1CCOCC1" ?
Response: 66.5

###

ASSAY COMMENT: Pharmacokinetic study in rats
Assay type: in vivo
EXPERIMENTAL CONTEXT: Sprague-Dawley, rat, plasma, po, 40 mg/kg, AUClast_plasma, p.o. 40 mg/kg, mean ± SD, n = 3
MEASUREMENT LABEL: AUC (ng·h/mL)
Give a bare numeral; the unit ng·h/mL is implied.

Request: Which measured AUC value corresponds to "COc1cc2ncnc(Nc3ccc(F)c(Cl)c3)c2cc1OCCCN1CCOCC1" ?
Response: 20500

###

ASSAY COMMENT: Pharmacokinetic study in rats
Type: in vivo
EXPERIMENTAL CONTEXT: Sprague-Dawley, rat, plasma, iv, 10 mg/kg, AUClast_plasma, i.v. 10 mg/kg, mean ± SD, n = 3
MEASUREMENT LABEL: AUC
Note to self: number, then unit, no commentary.

Request: Which measured AUC value corresponds to COc1cc2ncnc(Nc3ccc(F)c(Cl)c3)c2cc1OCCCN1CCOCC1 [Gefitinib] ?
Response: 7720 ng·h/mL

###

ASSAY COMMENT: Metabolic stability in mouse liver microsomes
Format: in vitro ADME
EXPERIMENTAL CONTEXT: pH 7.4
MEASUREMENT LABEL: half-life at 1 μmol/L (min)
Give a bare numeral; the unit min is implied.

Request: Which measured half-life at 1 μmol/L value corresponds to COc1cc2ncnc(Nc3ccc(F)c(Cl)c3)c2cc1OCCCN1CCOCC1 [Gefitinib] ?
Response: 8.38
